# PROCEDURE DETAILS: physchem
# ASSAY SETUP: pH 7.3, Solubility Conc., pH 7.3; vehicle 10 mM phosphate
Positions of bridges follow the written chain, without caps; N, C: chain ends. Non-standard residues stand in square brackets, D forms with d. Residues, ends and D or L forms follow the SMILES beside them. *: point of attachment. Lys(CH2CO2H)2 = N[C@@H](CCCCN(CC(=O)O)CC(=O)O)C(=O)O; X1 = O=C(O)CCCCCCCCCCCCCCCCC(=O)NCCOCCOCCN*
VALUE TYPE: solubility (µM)

INSERT INTO results (molecule, measured_result) VALUES
  ('CC(=O)N[C@H]1CCCCNC(=O)C[C@@H](C(=O)N2CCC[C@H]2C(=O)N[C@@H](CO)C(=O)N[C@@H](CO)C(=O)N[C@@H](CO)C(=O)N[C@@H](CCCCN(CC(=O)O)CC(=O)O)C(=O)N[C@@H](CO)C(=O)N[C@@H](CO)C(=O)NCCOCCOCCNC(=O)CCCCCCCCCCCCCCCCC(=O)O)NC(=O)[C@H](Cc2c[nH]c3ccccc23)NC(=O)[C@H](CCCNC(=N)N)NC(=O)[C@@H](Cc2ccccc2)NC(=O)[C@H](Cc2c[nH]cn2)NC1=O [Example 53] (Ac-KH[dF]RWDPSSS[Lys(CH2CO2H)2]SS-X1; lactam 1-6)', 396);
